# System: succinoxidase system of beef heart mitochondria
# Test Name: CoQ activity: restoring succinoxidase activity of pentane-extracted beef heart mitochondria (manometric)
# Format: biochemical
# Design: key: activity index relative to CoQ10 standard
# Conditions Used: calculated from relative effectiveness; activity in terms of that of CoQ10
Measured CoQ10 Act. Index values are reported for all entries that follow.
Could you keep your reply to the number by itself?

Recorded CoQ10 Act. Index, per entry:
{"columns": ["Compound", "Reading"],
 "data": [
  ["CCCCCCCCC=CCCCCCCCC1=C(C)C(=O)C(OC)=C(OC)C1=O", 5.8],
  ["COC1=C(OC)C(=O)C(C/C=C(\\C)CC/C=C(\\C)CC/C=C(\\C)CC/C=C(\\C)CC/C=C(\\C)CC/C=C(\\C)CCC=C(C)C)=C(C)C1=O [CoQ7, reference compound]", 1.7],
  ["CCC=CCC=CCC=CCCCCCCCCCC1=C(C)C(=O)C(OC)=C(OC)C1=O", 10.2],
  ["CCCCCCCCCCCCCCCCCCCCC1=C(C)C(=O)C(OC)=C(OC)C1=O", 0.9],
  ["CCC=CCC=CCC=CCCCCCCCC1=C(C)C(=O)C(OC)=C(OC)C1=O", 12.5]
]}

# context switch: different compound, same CoQ10 Act. Index
Given the entry CCCCCC1=C(C)C(=O)C(OC)=C(OC)C1=O , report its measured CoQ10 Act. Index.
1.2

FYI, the data here is from patent US3974187A.
